Value source: patent US6737383B1

System: corn
Assay: Test B pre/postemergence corn
Assay type: in vivo, Zea mays
Details: Postemergence, Rate 500 g/ha; scale of 0 to 10 where 0 is no effect and 10 is complete control
PROPERTY NAME: Plant response rating, Corn
Just the number, please.

Using corn as the test system, report measured Plant response rating, Corn of CC(C)N(C(=O)n1oc(=O)n(C(C)C(=O)c2ccccc2)c1=O)c1ccccc1 (stereo not drawn) [Compound 570] .
0

Identify measured Plant response rating, Corn obtained with corn for CC(C)N(C(=O)n1oc(=O)n(CC(=O)C(F)(F)F)c1=O)c1ccc(F)cc1F [Compound 598] .
0

With corn as the test system, provide measured Plant response rating, Corn for this compound: CC(C)N(C(=O)n1oc(=O)n(CCC(F)(F)F)c1=O)c1ccccc1 [Compound 584]
4

Tell me its Plant response rating, Corn on corn: CC(C)N(C(=O)n1oc(=O)n(CCC(F)=C(F)F)c1=O)c1ccccc1 [Compound 566]
2

Recall the reported Plant response rating, Corn of COCCn1c(=O)on(C(=O)N(c2ccccc2)C(C)C)c1=O [Compound 631] when tested on corn.
8

Enter measured Plant response rating, Corn, system corn, for the compound shown: CC(C)N(C(=O)n1oc(=O)n(CC2=NOCCC2)c1=O)c1ccc(F)cc1F [Compound 602]
0
